# Target system: Human TRPV3 (Homo sapiens)
# Construct: expressed in transfected cells; host or cells: CHO cells (G-418 selected)
# Sequence (Q8NET8 1-790): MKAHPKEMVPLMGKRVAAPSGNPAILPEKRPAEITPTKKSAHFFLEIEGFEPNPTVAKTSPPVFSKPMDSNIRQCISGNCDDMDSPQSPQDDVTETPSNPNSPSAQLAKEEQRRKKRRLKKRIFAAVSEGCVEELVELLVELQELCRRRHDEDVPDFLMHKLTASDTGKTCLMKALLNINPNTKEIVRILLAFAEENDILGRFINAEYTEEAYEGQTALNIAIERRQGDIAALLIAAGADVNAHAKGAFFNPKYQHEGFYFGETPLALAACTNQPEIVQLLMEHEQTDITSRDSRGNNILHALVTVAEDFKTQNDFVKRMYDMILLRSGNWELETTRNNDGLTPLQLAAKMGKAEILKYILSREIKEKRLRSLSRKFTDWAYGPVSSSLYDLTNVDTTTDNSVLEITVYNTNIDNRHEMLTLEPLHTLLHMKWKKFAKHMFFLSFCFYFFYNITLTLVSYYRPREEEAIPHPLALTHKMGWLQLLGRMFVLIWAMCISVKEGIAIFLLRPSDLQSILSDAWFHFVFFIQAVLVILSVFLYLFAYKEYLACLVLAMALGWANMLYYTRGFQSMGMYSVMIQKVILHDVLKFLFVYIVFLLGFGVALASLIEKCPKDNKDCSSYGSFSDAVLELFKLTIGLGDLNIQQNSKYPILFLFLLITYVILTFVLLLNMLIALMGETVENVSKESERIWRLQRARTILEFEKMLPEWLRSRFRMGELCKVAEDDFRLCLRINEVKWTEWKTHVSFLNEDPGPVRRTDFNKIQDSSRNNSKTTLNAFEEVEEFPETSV
# Experimental protocol: 45Calcium uptake assay: inhibition of 2-APB induced cellular uptake of radioactive calcium
# Format: cell-based
# Test conditions: 1.0 μM compound; human TRPV3 expressing CHO cells; 2-APB 500 μM; read-out: Percentage inhibition at 1.0 μM
Property name: inhibition at 1 µM (%)

{"Compound": "CC(C)S(=O)(=O)Nc1ccccc1CCC(=O)NC1CC2(CCC2)Oc2ccc(Cl)cc21 (stereo not shown) [Example 34]", "Units": "%", "Numeric readout": 5.69}
{"Compound": "COc1ccc(CCC(=O)N[C@@H]2CC3(CCC3)Oc3ccc(Cl)cc32)c2ccccc12 [Example 69]", "Units": "%", "Numeric readout": 40.3}
{"Compound": "COc1ccc2cc([C@H](C)C(=O)N[C@@H]3CC4(CCC4)Oc4ccc(Cl)cc43)ccc2c1 [Example 19]", "Units": "%", "Numeric readout": 23.1}
{"Compound": "O=C(CCc1ccc2ccccc2c1)NC1CC2(CCC2)Oc2ccc(Cl)cc21 (stereo not shown) [Example 73]", "Units": "%", "Numeric readout": 61.3}

---

# Target system: UniProt Q8NET8
# Experimental protocol: 45Calcium uptake assay: inhibition of 2-APB induced cellular uptake of radioactive calcium
# Test conditions: human TRPV3 expressing CHO cells; 2-APB 500 μM
# Protocol: The illustrative examples of the present invention are screened for TRPV3 activity according to a modified procedure described in Toth, A. et al. Life Sciences (2003), 73, 487-498. […] The inhibition of TRPV3 receptor activation was followed as inhibition of 2-APB induced cellular uptake of radioactive calcium. […] Radioactivity in the lysate was measured in Packardt Top count after addition of liquid scintillant. […]
Entries annotated with measured IC50

{"Molecule": "O=C(Cc1cccc2ccccc12)N[C@H]1CC2(CCC2)Oc2ccc(Cl)cc21 [Example 13]", "IC50": "1000 to 2000 nM"}
{"Molecule": "COc1cccc(CCC(=O)N[C@@H]2CC3(CCC3)Oc3c(Cl)cccc32)c1OC1CCCC1 [Example 47]", "IC50": "< 500 nM"}
{"Molecule": "COc1cccc(CCC(=O)NC2CC3(CCC3)Oc3ccc(Cl)cc32)c1OC(C)C (centres unmarked) [Example 39]", "IC50": "500 to 1000 nM"}
{"Molecule": "O=C(CCc1ccccc1OC1CCCC1)N[C@@H]1CC2(CCC2)Oc2c(Cl)cccc21 [Example 31]", "IC50": "500 to 1000 nM"}
{"Molecule": "COc1cccc(CCC(=O)NC2CC3(CCC3)Oc3cccc(O)c32)c1OC1CCCC1 (centres unmarked) [Example 51]", "IC50": "1000 to 2000 nM"}
{"Molecule": "Cc1c(CC(=O)NC2CC3(CCC3)Oc3ccc(F)cc32)[nH]c2ccc(F)cc12 (centres unmarked) [Example 24]", "IC50": "1000 to 2000 nM"}
{"Molecule": "COc1cc(CCC(=O)N[C@H]2CC3(CCC3)Oc3ccc(Cl)cc32)cc2cc(C)oc12 [Example 80]", "IC50": "500 to 1000 nM"}
{"Molecule": "COc1ccccc1CC(=O)NC1CC2(CCC2)Oc2ccc(Cl)cc21 (centres unmarked) [Example 2]", "IC50": "> 2000 nM"}

---

# Target system: Human TRPV3 (Homo sapiens)
# Experimental protocol: 45Calcium uptake assay: inhibition of 2-APB induced cellular uptake of radioactive calcium
# Test conditions: human TRPV3 expressing CHO cells; 2-APB 500 μM
pIC50: −log10 of the molar value.
Property name: pIC50

{"Compound": "COc1cccc(CCCC(=O)NC2CC3(CCC3)Oc3c(Cl)cc(F)cc32)c1OC1CCCC1 (centres unmarked) [Example 97]", "Result": "5.70 to 6.00"}
{"Compound": "COc1ccc(CCC(=O)NC2CC3(CCC3)Oc3ccc(Cl)cc32)c2cc(C)oc12 (centres unmarked) [Example 78]", "Result": "6.00 to 6.30"}
{"Compound": "COc1ccc(CCC(=O)N[C@H]2CC3(CCC3)Oc3ccc(Cl)cc32)c2ccccc12 [Example 70]", "Result": "6.00 to 6.30"}
{"Compound": "COc1cccc(CCC(=O)NC2CC3(CCC3)Oc3c(Cl)cc(Cl)cc32)c1OC1CCCC1 (centres unmarked) [Example 59]", "Result": "> 6.30"}
{"Compound": "COc1cccc(CCC(=O)NC2CC3(CCC3)Oc3ccccc32)c1OC1CCCC1 (centres unmarked) [Example 37]", "Result": "6.00 to 6.30"}
{"Compound": "CC(C)Oc1c(CCC(=O)NC2CC3(CCC3)Oc3c(Cl)cc(Cl)cc32)cccc1NS(C)(=O)=O (centres unmarked) [Example 65]", "Result": "6.00 to 6.30"}
{"Compound": "COc1cccc(CCCC(=O)NC2CC3(CCC3)Oc3ccc(Cl)cc32)c1OC1CCCC1 (centres unmarked) [Example 92]", "Result": "> 6.30"}
{"Compound": "O=C(CC1CCCc2ccccc21)NC1CC2(CCC2)Oc2ccc(Cl)cc21 (centres unmarked) [Example 21]", "Result": "6.00 to 6.30"}
{"Compound": "COc1cccc(CCCC(=O)N[C@@H]2CC3(CCC3)Oc3ccc(Cl)cc32)c1OC1CCCC1 [Example 93]", "Result": "6.00 to 6.30"}
{"Compound": "Cc1cccc(CCC(=O)N[C@@H]2CC3(CCC3)Oc3ccc(Cl)cc32)c1OC1CCCC1 [Example 53]", "Result": "6.00 to 6.30"}
{"Compound": "COc1ccc2cc(CCC(=O)N[C@@H]3CC4(CCC4)Oc4ccc(Cl)cc43)ccc2c1 [Example 74]", "Result": "5.70 to 6.00"}
{"Compound": "COc1cccc(CCC(=O)NC2CC3(CCC3)Oc3cc(Cl)ccc32)c1OC1CCCC1 (centres unmarked) [Example 45]", "Result": "6.00 to 6.30"}
{"Compound": "COc1cccc(CCC(=O)NC2CC3(CCC3)Oc3cccc(OCc4ccccc4)c32)c1OC1CCCC1 (centres unmarked) [Example 50]", "Result": "6.00 to 6.30"}
{"Compound": "COc1cccc(CCC(=O)N[C@@H]2CC3(CCC3)Oc3ccc(Cl)cc32)c1OC1CCCC1 [Example 42]", "Result": "6.00 to 6.30"}
{"Compound": "COc1cccc(CCC(=O)N[C@H]2CC3(CCC3)Oc3ccc(Cl)cc32)c1OC1CCCC1 [Example 43]", "Result": "6.00 to 6.30"}
{"Compound": "O=C(CCc1ccc2ccccc2c1)NC1CC2(CCC2)Oc2ccc(Cl)cc21 (centres unmarked) [Example 73]", "Result": "6.00 to 6.30"}
{"Compound": "COc1cccc(CCCC(=O)N[C@@H]2CC3(CCC3)Oc3c(Cl)cccc32)c1OC1CCCC1 [Example 95]", "Result": "6.00 to 6.30"}

---

# Target system: Human TRPV3 (Homo sapiens)
# Construct: expressed in transfected cells; host or cells: CHO cells (G-418 selected)
# Experimental protocol: 45Calcium uptake assay: inhibition of 2-APB induced cellular uptake of radioactive calcium
# Assay type: cell-based
# Test conditions: 1.0 μM compound; human TRPV3 expressing CHO cells; 2-APB 500 μM; read-out: Percentage inhibition at 1.0 μM
The class of a record is decided solely by its measured inhibition at 1 µM; consult bottom end: < 30%; midrange: ≥ 30% and < 50%; top end: ≥ 50%

{"Compound": "COc1ccc(CCC(=O)NC2CC3(CCC3)Oc3ccc(Cl)cc32)c2cc(C)oc12 (centres unmarked)", "Cat": "midrange"}
{"Compound": "O=C(CC1CCc2ccccc2C1)NC1CC2(CCC2)Oc2ccc(Cl)cc21 (centres unmarked)", "Cat": "midrange"}
{"Compound": "O=C(CCc1ccccc1OC1CCCC1)N[C@H]1CC2(CCC2)Oc2c(Cl)cccc21", "Cat": "bottom end"}
{"Compound": "O=C(Cc1cccc2ccccc12)NC1CC2(CCC2)Oc2ccccc21 (centres unmarked)", "Cat": "bottom end"}
{"Compound": "COc1ccc2cc(CCC(=O)N[C@H]3CC4(CCC4)Oc4ccc(Cl)cc43)ccc2c1", "Cat": "midrange"}
{"Compound": "COc1cccc(CCCC(=O)NC2CC3(CCC3)Oc3cc(OCc4ccccc4)ccc32)c1OC1CCCC1 (centres unmarked)", "Cat": "bottom end"}
{"Compound": "COc1cccc(CC(=O)N[C@H]2CC3(CCC3)Oc3c(Cl)cccc32)c1OC1CCCC1", "Cat": "midrange"}
{"Compound": "O=C(CCc1cccc2c1oc1ccccc12)NC1CC2(CCC2)Oc2ccc(Cl)cc21 (centres unmarked)", "Cat": "top end"}
{"Compound": "O=C(Cc1ccc2c(c1)OCO2)NC1CC2(CCC2)Oc2ccc(Cl)cc21 (centres unmarked)", "Cat": "bottom end"}
{"Compound": "CS(=O)(=O)Nc1ccccc1CC(=O)NC1CC2(CCC2)Oc2ccc(Cl)cc21 (centres unmarked)", "Cat": "bottom end"}
{"Compound": "CC(C)Oc1c(CCC(=O)NC2CC3(CCC3)Oc3c(Cl)cc(Cl)cc32)cccc1NS(C)(=O)=O (centres unmarked)", "Cat": "top end"}
{"Compound": "Cc1cccc(CCC(=O)N[C@H]2CC3(CCC3)Oc3ccc(Cl)cc32)c1OC1CCCC1", "Cat": "midrange"}
{"Compound": "COc1ccc(C(=O)CCC(=O)NC2CC3(CCC3)Oc3ccc(Cl)cc32)c2ccccc12 (centres unmarked)", "Cat": "bottom end"}
